Source listed as patent US20240409629A1.

# Measurement target: human CLDN18.2 (human)
# Method summary: cell-based or functional assay
Property: ADCC EC50, PBMC effector cells, NIH-3T3-CLDN18.2 target cells (nM)
Answers are plain numbers, in nM.

Here's what some known entries look like.
Binder: 15F9 (antibody, human IgG1, kappa, V domains shown) VH: QVQLVQSGSELKKPGASVKVSCKASGYTFTNYGINWVRQAPGQGLEWMGWINPNTGETTYAEEFKGRFVFSLDTSVSTAYLQISSLKAEDTAVYFCARLYYGNRFDSWGQGTLVTVSS VL: DIVMTQSPDSLAVSLGERATINCKSSQSLLNSGNQRNYLTWYQQKPGQPPKLLIYWASTRESGVPDRFSGSGSGTDFTLTISSLQAEDVAVYYCQNAYYYPLTFGGGTKVEIKR
Value observed: 0.18
//
Binder: humanized antibody hz28G3-1.1 (antibody, human IgG1, kappa, V domains shown) VH: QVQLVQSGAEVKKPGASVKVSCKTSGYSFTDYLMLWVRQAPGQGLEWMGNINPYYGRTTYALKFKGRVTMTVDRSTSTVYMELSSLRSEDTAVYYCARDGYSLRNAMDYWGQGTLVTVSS VL: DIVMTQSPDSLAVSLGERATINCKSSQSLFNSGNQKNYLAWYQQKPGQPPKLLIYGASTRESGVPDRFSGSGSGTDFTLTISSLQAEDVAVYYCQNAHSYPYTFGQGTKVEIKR
Value observed: 0.33

Shift focus to the following entry.
// ADCC EC50, PBMC effector cells, NIH-3T3-CLDN18.2 target cells lookup, key: chimeric antibody xi28G3 (antibody, human IgG1, kappa, V domains shown, Mouse variable regions on human IgG1/kappa; defucosylated, expressed in FUT8-knockout CHO-S cells; also called chimeric 28G3) VH: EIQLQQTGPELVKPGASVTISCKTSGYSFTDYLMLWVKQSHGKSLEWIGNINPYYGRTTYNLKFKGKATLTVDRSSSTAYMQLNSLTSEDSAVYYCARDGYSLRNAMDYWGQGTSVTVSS VL: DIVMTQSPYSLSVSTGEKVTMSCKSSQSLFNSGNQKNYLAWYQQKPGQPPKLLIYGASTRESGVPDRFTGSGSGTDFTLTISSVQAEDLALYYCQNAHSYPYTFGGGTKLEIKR 0.54
